Tested on: SGC-7901
Assay: Antiproliferative activity against human SGC7901 cells assessed as cell growth inhibition incubated for 72 hrs by MTT assay
Type: functional, cell-based
Conditions: SGC-7901, 72 h
Mark Criterion met only when IC50 stays strictly below 2 µM. Values equal to the cut-off are Criterion not met.

Completed entries (count: 3):
compound: COc1ccc(/C=C/C(=O)c2cc(OC)c(OC)c(OC)c2)cc1OCCCC(=O)NO
category.label: Criterion not met
--
compound: COc1ccc(/C=C(\C)C(=O)c2cc(OC)c(OC)c(OC)c2)cc1O
category.label: Criterion not met
--
compound: COc1ccc(/C=C(\C)C(=O)c2cc(OC)c(OC)c(OC)c2)cc1OCCCCCC(=O)NO
category.label: Criterion not met

INPUT: Is IC50 of "COc1ccc(/C=C/C(=O)c2cc(OC)c(OC)c(OC)c2)cc1OCCCCC(=O)NO" strictly below 2 µM?
OUTPUT: Criterion not met

INPUT: Input "COc1ccc(/C=C(\C)C(=O)c2cc(OC)c(OC)c(OC)c2)cc1OCCCCCCCC(=O)NO" ; condition: IC50 strictly below 2 µM. Does it hold?
OUTPUT: Criterion not met

INPUT: Take the compound "COc1ccc(/C=C/C(=O)c2cc(OC)c(OC)c(OC)c2)cc1OCCCCCCCC(=O)NO" and say whether its IC50 is less than 2 µM.
OUTPUT: Criterion not met

INPUT: Identify whether the compound "COc1ccc(/C=C(\C)C(=O)c2cc(OC)c(OC)c(OC)c2)cc1OCCCC(=O)NO" records IC50 below 2 µM.
OUTPUT: Criterion met

INPUT: In the record for O=C(CCCCCCC(=O)Nc1ccccc1)NO [VORINOSTAT] , is IC50 less than 2 µM?
OUTPUT: Criterion met
